Assay: LNCaP granularity increase inducers, single-point recheck – cell-based, side scatter shift, flow cytometry, confirmation (AID 1069);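 further: LNCaP human prostate cancer cells in low-serum medium with charcoal-stripped FBS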
Conditions: LNCaP differentiation, 4 d, side scatter shift, at 10 µM, stronger effect = higher value
Class Satisfied: side scatter shift at least 10%. Class Not satisfied: side scatter shift below 10%.

molecule	group_label
O=c1cc(N2CCc3ccccc3C2)[nH]c(=O)n1C1CCCCC1	Not satisfied
CCOC(=O)C1CCCN(C(=O)Cn2cccc2C(=O)c2ccccc2)C1 (stereo not given)	Not satisfied

## Task Given Cc1ccccc1-c1nc(CN2CCC(C(=O)NCCCN3CCCC3)CC2)c(C)o1 , state whether its side scatter shift is at least 10%.
## Result Satisfied

## Task Please tell me: is the molecule CCOc1cccc2cc(-c3cn4cc(C)ccc4n3)c(=O)oc12 at or over 10% in terms of side scatter shift?
## Result Not satisfied
